target_system: Cellular tumor antigen p53 (Homo sapiens) (UniProt P04637)
Sequence (P04637 whole entry, looked up): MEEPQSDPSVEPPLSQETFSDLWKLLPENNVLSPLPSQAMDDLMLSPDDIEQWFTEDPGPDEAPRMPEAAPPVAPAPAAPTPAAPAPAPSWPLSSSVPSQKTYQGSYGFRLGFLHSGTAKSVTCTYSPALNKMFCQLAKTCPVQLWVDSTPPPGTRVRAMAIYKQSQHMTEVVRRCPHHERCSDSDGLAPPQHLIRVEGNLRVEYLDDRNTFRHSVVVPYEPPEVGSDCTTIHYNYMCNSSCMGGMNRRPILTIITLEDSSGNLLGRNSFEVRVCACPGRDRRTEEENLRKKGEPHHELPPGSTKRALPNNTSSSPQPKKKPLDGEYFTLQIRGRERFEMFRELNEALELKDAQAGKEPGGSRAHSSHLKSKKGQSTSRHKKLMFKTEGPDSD
protocol_notes: TOX21_p53_BLA_p2_ratio: Tox21 HCT-116 p53 Agonism Beta-lactamase Assay, Ratio, Phase 2 (AID 2283592)
Records with an inconclusive call do not appear. Calls of active or inactive are those of the source. Rule for the calls: active = hit-call score of the fitted dose curve at least 0.9, where 1 is the maximum; inconclusive = response in the unintended direction; inactive = score below 0.9.
measured_parameter: AC50

CCOC(=O)C(C)Oc1ccc(Oc2nc3ccc(Cl)cc3o2)cc1 (stereo not drawn)    inactive
CCCN(CCC)C(=O)SCC    inactive
CCOC(=O)COc1cc(-n2ncc(C(F)(F)F)c(C)c2=O)c(F)cc1Cl    inactive
C[C@]12CC[C@@H]3c4ccc(O)cc4C[C@@H](CCCCCCCCCS(=O)CCCC(F)(F)C(F)(F)F)[C@H]3[C@@H]1CC[C@@H]2O (stereo partly drawn)    inactive
OB(O)O    inactive
CCCCC(CC)CN1C(=O)C2C3C=CC(C3)C2C1=O (stereo not drawn)    inactive
COc1nc(C)nc(NC(=O)NS(=O)(=O)c2ccccc2OCCCl)n1    inactive
CC1(C)C(C=C(Cl)Cl)C1C(=O)OCc1cccc(Oc2ccccc2)c1 (stereo not drawn)    inactive
CCCN(CCC)c1c([N+](=O)[O-])cc(C(F)(F)F)c(N)c1[N+](=O)[O-]    37.8 µM (active)
CCCOC(=O)NCCCN(C)C    inactive
C[C@]12C[C@H](O)[C@H]3[C@@H](CCC4=CC(=O)CC[C@@]43C)[C@@H]1CC[C@@H]2C(=O)CO    inactive
CCCCC(CC)COC(=O)c1ccccc1C(=O)O (stereo not drawn)    inactive
CCOC(=O)c1ccc(O)cc1    inactive
CCCCCCC(C)OC(=O)COc1nc(F)c(Cl)c(N)c1Cl (stereo not drawn)    82.3 µM (active)
CCN(Cc1c(F)cccc1Cl)c1c([N+](=O)[O-])cc(C(F)(F)F)cc1[N+](=O)[O-]    inactive
c1ccc(Nc2ccccc2)cc1    inactive
CC(=O)[C@H]1CC[C@H]2[C@@H]3CCC4=CC(=O)CC[C@]4(C)[C@H]3CC[C@]12C    inactive
Cc1nn(C)c(Oc2ccccc2)c1C=NOCc1ccc(C(=O)OC(C)(C)C)cc1    0.0043 µM (active)

====

target_system: human CYP19A1, CYP19A1 (gene 1588) (UniProt P11511)
Sequence (P11511 whole entry, looked up): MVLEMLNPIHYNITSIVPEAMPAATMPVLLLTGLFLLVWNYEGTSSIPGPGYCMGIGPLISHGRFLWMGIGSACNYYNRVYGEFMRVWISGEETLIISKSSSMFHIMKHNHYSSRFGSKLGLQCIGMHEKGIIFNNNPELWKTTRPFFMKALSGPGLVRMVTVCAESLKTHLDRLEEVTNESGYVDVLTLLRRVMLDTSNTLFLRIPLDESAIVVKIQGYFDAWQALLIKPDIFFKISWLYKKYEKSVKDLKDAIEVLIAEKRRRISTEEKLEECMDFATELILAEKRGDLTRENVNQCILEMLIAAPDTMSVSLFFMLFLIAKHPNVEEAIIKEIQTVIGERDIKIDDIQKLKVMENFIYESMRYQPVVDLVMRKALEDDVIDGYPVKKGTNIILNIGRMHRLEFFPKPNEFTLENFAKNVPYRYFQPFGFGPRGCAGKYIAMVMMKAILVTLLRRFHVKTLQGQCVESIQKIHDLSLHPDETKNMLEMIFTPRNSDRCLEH
protocol_notes: NVS_ADME_hCYP19A1: NovaScreen (NVS) CYP450-related Enzyme Activity (ADME) Assay for human CYP19A1 (AID 2283098)
Records with an inconclusive call do not appear. The source made the active and inactive calls. Rule for the calls: active = hit-call score of the fitted dose curve at least 0.9, where 1 is the maximum; inconclusive = response in the unintended direction; inactive = score below 0.9.
Possible outcomes: active, inactive

CCCOC(=O)c1ccc(C(=O)OCCC)nc1    inactive
C[C@]12C[C@H](O)[C@H]3[C@@H](CCC4=CC(=O)CC[C@@]43C)[C@@H]1CC[C@@H]2C(=O)CO    inactive
CCCCOCCOCCOCc1cc2c(cc1CCC)OCO2    inactive
COC(=O)CSc1cc(N=c2sc(=O)n3n2CCCC3)c(F)cc1Cl    inactive
S=C([S-])NCCNC(=S)[S-].[Mn+2]    active
COC(=O)c1ccccc1C(=O)O    active

====

protocol_notes: BSK_hDFCGF_Proliferation: Cell Proliferation Assessment in the BioMAP Diversity Plus: hDFCGF Assay (AID 2283059);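 note: curves fitted for both rise and fall of signal versus DMSO baseline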
reported_conditions: primary human foreskin fibroblasts
The source made the active and inactive calls. Rule for the calls: active = hit-call score of the fitted dose curve at least 0.9, where 1 is the maximum; inactive = score below 0.9.
Outcome codes: Yes = active, No = inactive

c1ccc(Nc2ccccc2)cc1    No
Cc1nn(C)c(Oc2ccccc2)c1C=NOCc1ccc(C(=O)OC(C)(C)C)cc1    Yes
CCCOC(=O)c1ccc(C(=O)OCCC)nc1    No
CC(C)(c1ccc(O)cc1)c1ccc(O)cc1    Yes
CC(C)(C)[C@@H](O)[C@@H](Cc1ccc(Cl)cc1)n1cncn1    No
CSC(=O)c1cccc2nnsc12    No
Oc1ccc(C(c2ccc(O)cc2)C(Cl)(Cl)Cl)cc1    Yes
OB(O)O    No
O=C(Nc1ccc([N+](=O)[O-])cc1Cl)c1cc(Cl)ccc1O    Yes
COCCO    No
O=C(c1ccccc1)C1CCCCC1    No
COC(=O)c1ccc(I)cc1S(=O)(=O)NC(=O)Nc1nc(C)nc(OC)n1    No
CCCCC(CC)COC(=O)c1ccccc1C(=O)O (centres undefined)    No
C[C@]12C[C@H](O)[C@H]3[C@@H](CCC4=CC(=O)CC[C@@]43C)[C@@H]1CC[C@@H]2C(=O)CO    No
COC(=O)c1ccccc1C(=O)O    No
CCC(O)=C1C(=O)CC(C(=O)O)CC1=O (centres undefined)    No
CCCCOCCOCCOCc1cc2c(cc1CCC)OCO2    Yes
S=C([S-])NCCNC(=S)[S-].[Mn+2]    Yes
CCOC(=O)NCCOc1ccc(Oc2ccccc2)cc1    Yes
